These measurements were taken from patent US20240343733A1.

TESTED SYSTEM: IRAK4 (Homo sapiens, UniProt Q9NWZ3)
Construct: 293Tcells expressing HiBiT-tagged IRAK4 were then added into 384-well plates
Sequence (Q9NWZ3 whole entry): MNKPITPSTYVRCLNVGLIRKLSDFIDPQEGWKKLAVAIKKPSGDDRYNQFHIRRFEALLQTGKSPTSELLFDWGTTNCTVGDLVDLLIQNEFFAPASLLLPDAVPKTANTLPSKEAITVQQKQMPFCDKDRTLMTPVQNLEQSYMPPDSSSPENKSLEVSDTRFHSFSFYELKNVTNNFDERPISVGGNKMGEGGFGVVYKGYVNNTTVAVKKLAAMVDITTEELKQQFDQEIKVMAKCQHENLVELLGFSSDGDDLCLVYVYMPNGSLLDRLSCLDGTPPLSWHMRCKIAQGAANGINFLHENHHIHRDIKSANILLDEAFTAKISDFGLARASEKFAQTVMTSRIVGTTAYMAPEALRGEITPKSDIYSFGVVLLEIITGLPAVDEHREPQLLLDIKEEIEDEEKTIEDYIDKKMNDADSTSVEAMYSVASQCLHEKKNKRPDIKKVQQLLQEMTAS
EXPERIMENT: IRAK4 Degradation Assay, HiBiT Method
Assay type: cell-based
CONDITION CONTEXT: 293T cells expressing HiBiT-tagged IRAK4, 6 hours
VALUE KIND: DC50

(Q) Entry under review: CC(C)Oc1cc2nc(C3CCN(CC(=O)N4CCC(c5ccc(C6CCC(=O)NC6=O)cc5)CC4)CC3)cn2cc1C(=O)Nc1cccc(C(F)F)n1 (stereo not drawn) . Reported DC50?
(A) 10 to 100 nM

(Q) Entry under review: CC(C)Oc1cc2nn([C@H]3CC[C@H](CN4CC5(CCN(c6ncc(C7CCC(=O)NC7=O)cc6F)CC5)C4)CC3)cc2cc1C(=O)Nc1cnn2cccnc12 (stereo partly drawn) . Reported DC50?
(A) < 10 nM

(Q) Entry under review: CC(C)Oc1cc2nc([C@H]3CC[C@H](CN4CCC(c5ccc6c(c5)n(C)c(=O)n6C5CCC(=O)NC5=O)CC4)CC3)cn2cc1C(=O)Nc1cccn([C@H]2C[C@H]2F)c1=O (stereo partly drawn) . Reported DC50?
(A) < 10 nM

(Q) Entry under review: CC(C)Oc1nc2nc([C@H]3CC[C@H](CN4CCC(c5ccc6c(c5)n(C)c(=O)n6C5CCC(=O)NC5=O)CC4)CC3)cn2cc1C(=O)Nc1cccn([C@H]2C[C@H]2F)c1=O (stereo partly drawn) . Reported DC50?
(A) < 10 nM

(Q) Entry under review: CC(C)Oc1cc2nc(C3CCN(C(=O)CC4(O)CCN(c5ccc(NC6CCC(=O)NC6=O)cc5F)CC4)CC3)cn2cc1C(=O)Nc1cccc(C(F)F)n1 (stereo not drawn) . Reported DC50?
(A) < 10 nM

(Q) Entry under review: CC(C)Oc1cc2nc([C@H]3CC[C@H](CN4CCN(c5ccc6c(N7CCC(=O)NC7=O)nn(C)c6c5)CC4)CC3)cn2cc1C(=O)Nc1cccc(C(F)F)n1 . Reported DC50?
(A) 10 to 100 nM

(Q) Entry under review: CC(C)Oc1cc2nn(C3CCN(C(=O)CC4CCN(c5ccc(C6CCC(=O)NC6=O)cn5)CC4)CC3)cc2cc1C(=O)Nc1cccn([C@H]2C[C@H]2F)c1=O (stereo partly drawn) . Reported DC50?
(A) < 10 nM

(Q) Entry under review: CC(C)Oc1cc2nc([C@H]3CC[C@H](CN4CC5(CCN(c6ncc(N7CCC(=O)NC7=O)cc6F)CC5)C4)CC3)cn2cc1C(=O)Nc1cnn2cccnc12 . Reported DC50?
(A) < 10 nM

(Q) Entry under review: CC(C)Oc1cc2nc(C3CCN(C(=O)CN4CCN(c5ccc(C6CCC(=O)NC6=O)cn5)CC4)CC3)cn2cc1C(=O)Nc1cccn([C@H]2C[C@H]2F)c1=O (stereo partly drawn) . Reported DC50?
(A) < 10 nM

(Q) Entry under review: CC(C)Oc1cc2nn([C@H]3CC[C@H](CN4CCC(c5ccc(OC6CCC(=O)NC6=O)cc5)CC4)CC3)cc2cc1C(=O)Nc1cnn2cccnc12 (stereo partly drawn) . Reported DC50?
(A) < 10 nM
